- assay_info: protease stability score; higher = more stable; yeast display proteolysis, trypsin and chymotrypsin;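 also: relative to predicted unfolded state with 0 unfolded-like and 1 meaning tenfold more protease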

>  <sequence_record>
TEEEHLVEEMARRMLHSWLTGDEETLERLLDPNVRLEMIIDGVELRLHGREDMSRWLREWVERVDHVEIEIKRIRLIGEKSILDGQIHERQGDKERVIKTEIIVVVVDGRIHNSKIIIR

>  <protease stability score>
1.14

$$$$
>  <sequence_record>
SELEKYSKLMLDLILHSRLTGDEEHHEKLMDPNVRIEIGDKELHGRELAVKWMSHWRLEELRVRHIHNQGDKINVDVEEVETVDGVRIRFRSELIILKVDGQWLNHSIITR

>  <protease stability score>
1.16

$$$$
>  <sequence_record>
SEDEHHIERMLKLFVKAVKTGDEDTLVKLLDPHARLHIGDKDHHGWEDIYKHEHELGLDRVEMDIHRIHLQGDKINVDGTLFIDGKHIEVVIYAKKVNGRWFVETREIR

>  <protease stability score>
1.22

$$$$
